Where do these numbers come from? They come from PubChem BioAssay (NCI).

# System: NCI/ADR-RES ovarian
# ASSAY: NCI-60 one-dose screen, 48 h
# MEASUREMENT SETUP: 10 µM unless noted
This is part of a sample that, as a whole, favours compounds with a hit. Of some 83,000 tested, about 20% had one in any assay. Active and inactive are the calls of the source. How the source made its calls: active means growth percent below 10; inactive means the rest.
Possible outcomes: Y = active, N = inactive

MOLECULE | GROUP
CN(C)CCCC1(c2ccc(F)cc2)OCc2cc(-c3cc4ccccc4s3)ccc21 (centres undefined) | N
O=C(Nc1ccccc1[N+](=O)[O-])c1ccc(Cl)c(Cl)c1 | N
CC(=O)Oc1ccc(OC(C)=O)c2ccccc12 | N
CCc1ccc(CCC(=O)Nc2ncc(Cc3ccccc3)s2)o1 | N
COC(=O)N1CC(Oc2ccccn2)C2CC1c1ccccc1O2 (centres undefined) | N
CN1CCN(CCCOc2cccc3nc(Nc4ccc(F)c(F)c4)ccc23)CC1 | N
COc1ccc(CCN2C(=O)/C(=C/c3ccc(C4Oc5ccccc5C5CC(c6ccccc6)=NN54)cc3)SC2=S)cc1 (centres undefined) | N
C=C(C)[C@@H]1CC[C@]2(C)[C@H](CC=C3[C@@H]4CC(C)(C)CC[C@]4(CO)CC[C@]32C)[C@@]1(C)CCCN | N
CCN1C(=O)N(CC)C2C1NN=c1s/c(=C3\C(=O)N(CC(C)C)c4ccccc43)c(=O)n12 (centres undefined) | Y
O=P(O)(O)OCC1OC(n2cnc3c(NCc4ccco4)ncnc32)C(O)C1O (centres undefined) | N
COc1cc(/C=C2\CN(S(=O)(=O)c3ccccc3)C/C(=C\c3cc(CN4CCCCC4)c(O)c(OC)c3)C2=O)cc(CN2CCCCC2)c1O | Y
COc1ccc2c(c1)c(-c1nc(-c3c[nH]c4ncccc34)cs1)cn2CCCN1CCOCC1 | N
Cc1ccc(C(=O)Nc2cccc(C#Cc3cccc4[nH]nc(N)c34)c2)cc1C(F)(F)F | N
O=C1/C(=C\c2cccc3nccnc23)SC(=S)N1CCc1ccc(O)cc1 | N
COc1ccc2[nH]cc(-c3nc(-c4c[nH]c5c(Cl)nccc45)cs3)c2c1 | N
Cc1cn(-c2cc(NC(=O)c3cncc(C#Cc4c(N)ncc5ccc(F)cc45)c3)cc(C(F)(F)F)c2)cn1 | N
O=S(=O)(NCCNc1nccc(-c2c(-c3ccc(F)c(O)c3)nc3sccn23)n1)c1ccc(F)cc1 | N
CCOC(=O)c1c(C)nc2c(c1N)/C(=C/c1ccc(OC)cc1)C(=O)N2Cc1ccccc1 | N
Cc1c(CN)cc(-c2ccc(Cl)cc2)n1-c1ccccc1 | N

====

# Test system: MCF7 breast
# ASSAY: NCI-60 one-dose screen, 48 h (100 = growth as untreated, 0 = no growth, -100 = all killed)
# MEASUREMENT SETUP: 10 µM unless noted
About 83,000 compounds went through this panel and 20% of them were active in at least one assay; those are over-represented in the sample as a whole.
Decision: growth >= 10% yields 1.0, all other cases yield 0.0.

MOLECULE | SYSTEM | GROUP
COc1cc(NC(=O)c2cncnc2Nc2ccc3c(ccn3Cc3ccccn3)c2)cc(OC)c1 | MCF7 breast | 1.0
C=CCN1C(=O)c2cccc3c(N4CCOCC4)ccc(c23)C1=O | MCF7 breast | 0.0
O=C(CSc1nnc(-c2cc(-c3ccccc3)nc3ccccc23)n1-c1ccccc1)Nc1ccc(C(=O)/C=C/c2ccc(Cl)cc2)cc1 | MCF7 breast | 1.0
COc1ccc(/C=C/C(=O)c2cc3c(N)c(C(=O)Nc4cccc(Cl)c4C)sc3nc2C)cc1 | MCF7 breast | 0.0
O=C1/C=C/[C@@H](O)[C@@H]2C[C@@H](O)C[C@H]2/C=C/CCC[C@H](CCO)O1 | MCF7 breast | 0.0
O=C(Nc1ncc(Cc2cc(C(F)(F)F)ccc2Cl)s1)c1cccs1 | MCF7 breast | 1.0
C[C@H](CCCC(=O)NCC#CCN1CCN(C)CC1)[C@H]1CC[C@H]2[C@@H]3CC[C@@H]4CC(=O)CC[C@]4(C)[C@H]3CC[C@]12C | MCF7 breast | 1.0
O=C1C(Nc2ccccn2)=C(I)C(=O)c2ncccc21 | MCF7 breast | 0.0
COc1ccc2c(c1)/C(=N/c1n[nH]c(=S)s1)C(=O)N2 | MCF7 breast | 1.0
Cc1c(CN)cc(-c2ccc(Cl)cc2)n1-c1ccccc1 | MCF7 breast | 1.0
C=C(C)[C@@H]1CCC[C@]2(C(=O)N3CCN(C)CC3)CC[C@]3(C)[C@@H](CC[C@@H]4[C@@]5(C)CC/C(=N\NC(=O)c6ccncc6)C(C)(C)[C@@H]5CC[C@]43C)[C@@H]12 | MCF7 breast | 1.0
CCN1CCN(C(=O)[C@]23CC[C@@H](C)[C@H](C)[C@@H]2C2=CC[C@@H]4[C@@]5(C)C/C(=C/c6cccnc6)C(=O)C(C)(C)[C@@H]5CC[C@@]4(C)[C@]2(C)CC3)CC1 | MCF7 breast | 0.0
CC/C(Cc1ccccc1)=C(\c1ccc(OCCCN(C)C)cc1)c1ccc(OC(=O)NCc2ccccc2)cc1 | MCF7 breast | 1.0
O=C1Nc2ccccc2/C1=C\c1c[nH]c2ccc(Br)cc12 | MCF7 breast | 1.0
COc1cc(-c2nc3c(ncc4ccc(=O)n(-c5ccccc5)c43)s2)cc(OC)c1OC | MCF7 breast | 1.0
CS(=O)(=O)c1nnc(-c2ccccc2)s1 | MCF7 breast | 1.0
Nc1ncnc2c1N=C(c1ccc3c(c1)OCO3)CC(c1cccc(Nc3ccnc4cc(C(F)(F)F)ccc34)c1)N2 (stereo not drawn) | MCF7 breast | 1.0
CN1CCN(Cc2ccc(NC(=O)c3cncc(C#Cc4cnc(N)c5ccc(F)cc45)c3)cc2C(F)(F)F)CC1 | MCF7 breast | 1.0
